Origin of values: patent US20260042834A1

# test target: T1, corticotropin-releasing hormone (CRH) peptide (human and mouse (same sequence), not fully specified)
# T1 peptide: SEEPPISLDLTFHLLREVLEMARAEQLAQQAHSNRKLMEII
# procedure text: cell-based or functional assay
# hCRHR1 Luciferase Reporter Assay IC50 listing for each entry below
Write the number in nM without appending the unit.

Worked examples follow.
Memo: PR302309-21 (antibody, human IgG1, kappa, V domains shown) VH: QIQLVQSGAEVKKPGASVKVSCKASGYTFTNYGMNWVRQAPGQRLEWMGWINTYTGEPIYTDDFKGRVTITLDTSASTAYMELSSLRSEDTAVYYCSRSTMITTGGVFAYWGQGTLVTVSS VL: DVVMTQTPLSSPVTLGQPASISCRSSQTIVHSDGNTYLEWYQQRPGQPPRLLIYKVSNRFSGVPDRFSGSGAGTDFTLKISRVEAEDLGVYYCFQGSHVPWTFGGGTKVEIKR , reported hCRHR1 Luciferase Reporter Assay IC50: 8.44

Consider PR302309-8 (antibody, human IgG1, kappa, V domains shown) VH: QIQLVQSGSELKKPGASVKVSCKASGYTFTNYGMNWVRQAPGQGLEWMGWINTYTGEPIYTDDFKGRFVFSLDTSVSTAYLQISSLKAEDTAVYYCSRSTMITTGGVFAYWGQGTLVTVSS VL: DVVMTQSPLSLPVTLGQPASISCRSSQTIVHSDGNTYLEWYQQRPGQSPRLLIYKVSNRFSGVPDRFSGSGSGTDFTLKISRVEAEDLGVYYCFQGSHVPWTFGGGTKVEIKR . Its measured hCRHR1 Luciferase Reporter Assay IC50 is 1.7

---
hCRHR1 Luciferase Reporter Assay IC50 in this record for PR302309-12 (antibody, human IgG1, kappa, V domains shown) VH: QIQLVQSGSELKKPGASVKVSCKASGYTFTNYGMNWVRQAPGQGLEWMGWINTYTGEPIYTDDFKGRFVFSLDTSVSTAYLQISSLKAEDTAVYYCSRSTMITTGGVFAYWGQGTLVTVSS VL: DVVMTQTPLSSPVTLGQPASISCRSSQTIVHSDGNTYLEWYQQRPGQPPRLLIYKVSNRFSGVPDRFSGSGAGTDFTLKISRVEAEDLGVYYCFQGSHVPWTFGGGTKVEIKR : 4.47

GET /value?item= PR302309-20 (antibody, human IgG1, kappa, V domains shown) VH: QIQLVQSGAEVKKPGASVKVSCKASGYTFTNYGMNWVRQAPGQRLEWMGWINTYTGEPIYTDDFKGRVTITLDTSASTAYMELSSLRSEDTAVYYCSRSTMITTGGVFAYWGQGTLVTVSS VL: DVVMTQTPLSLSVTPGQPASISCRSSQTIVHSDGNTYLEWYLQKPGQSPQLLIYKVSNRFSGVPDRFSGSGSGTDFTLKISRVEAEDLGVYYCFQGSHVPWTFGGGTKVEIKR &field=hCRHR1 Luciferase Reporter Assay IC50 returns 3.07
